# testedSystem: SMS2 (Homo sapiens)
# Construct: CAO, Yu research team, National Protein Scientific Center (Shanghai); supplied by an outside laboratory, not a commercial vendor
# Sequence (Q8NHU3 1-365): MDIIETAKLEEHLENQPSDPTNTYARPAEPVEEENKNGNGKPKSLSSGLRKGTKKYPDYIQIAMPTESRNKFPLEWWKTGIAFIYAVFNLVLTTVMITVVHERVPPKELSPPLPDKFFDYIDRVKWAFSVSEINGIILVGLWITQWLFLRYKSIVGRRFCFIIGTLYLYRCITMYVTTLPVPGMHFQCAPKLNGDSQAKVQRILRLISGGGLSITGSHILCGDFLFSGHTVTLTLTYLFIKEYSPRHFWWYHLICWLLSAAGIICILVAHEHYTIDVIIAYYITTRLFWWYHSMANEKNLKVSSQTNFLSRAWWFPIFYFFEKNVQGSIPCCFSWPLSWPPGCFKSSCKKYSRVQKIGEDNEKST
# procedureSummary: SMS2 inhibitory activity in vitro, HPLC fluorescence quantitative detection (C6-NBD-ceramide to C6-NBD-SM)
# Type: biochemical
# conditionsUsed: 1 µM test compound; SMS2 pure enzyme; 37°C, 30 minutes; average of two measurements; read-out: Inhibition rate on SMS2 at C/µM 1
measuredParameter: inhibition at 1 µM (%)

COc1ccc(OC)c(COc2ccsc2C(=O)Nc2cccnc2)c1 ... 50

1: O=C(Nc1cccnc1)c1sccc1OCc1cccc2ccccc12
2: O=C(Nc1ccncc1)c1sccc1OCc1ccccc1
3: O=C(Nc1nncs1)c1sccc1OCc1ccccc1
4: O=C(Nc1cc(C(F)(F)F)ccn1)c1sccc1OCc1ccccc1
Order field: inhibition at 1 µM | Direction: descending (largest first) Ranked list of labels, please, in the requested order.
1, 4, 2, 3

====

# testedSystem: SMS2 (Homo sapiens, UniProt Q8NHU3)
# Construct: CAO, Yu research team, National Protein Scientific Center (Shanghai); supplied by an outside laboratory, not a commercial vendor
# procedureSummary: SMS2 inhibitory activity in vitro, HPLC fluorescence quantitative detection (C6-NBD-ceramide to C6-NBD-SM)
# Type: biochemical
# conditionsUsed: 10 µM test compound; SMS2 pure enzyme; 37°C, 30 minutes; average of two measurements; read-out: Inhibition rate on SMS2 at C/µM 10
measuredParameter: inhibition at 10 µM (%)

O=C(Nc1cccnc1)c1sccc1OCc1cccc(OC(F)(F)F)c1 [1-55] ... 65
Cc1cncc(NC(=O)c2sccc2OCc2ccccc2)c1 [1-83] ... 50
Cc1ccc(NC(=O)Cc2ccccc2COc2ccsc2C(=O)Nc2cccnc2)nc1 [12-8] ... 7
O=C(Nc1cccnc1)c1nccnc1OCc1ccccc1 [12-20] ... 16
O=C(Nc1cccnc1)c1sccc1OCC12CC3CC(CC(C3)C1)C2 [1-99] ... 62

P: O=C(Nc1cccnc1)c1scc(Br)c1OCc1ccccc1 [1-15]
Q: O=C(Nc1cccnc1)c1ncccc1OCc1ccccc1 [12-15]
R: CCOC(=O)CCCCCOc1ccccc1COc1ccsc1C(=O)Nc1cccnc1 [1-18]
# desc sort on inhibition at 10 µM across 3 molecules Rank the items, then write their labels in that order.
R, P, Q
(R: 97%, P: 53%, Q: 16%)

a: O=C(Nc1ccccn1)c1sccc1OCc1ccccc1 [1-61]
b: O=C(Nc1cccnc1)c1cccnc1OCc1ccccc1 [12-18]
c: O=C(Nc1cccnc1)c1sccc1OCc1cccc2c1Oc1c(F)c(F)c(F)c(F)c1O2 [1-19]
Kindly order the items shown according to inhibition at 10 µM, from the highest value down. // format: requested-order list of labels
c, a, b
(c: 77%, a: 50%, b: 22%)

====

# testedSystem: SMS2 (Homo sapiens)
# Construct: CAO, Yu research team, National Protein Scientific Center (Shanghai); supplied by an outside laboratory, not a commercial vendor
# Sequence (Q8NHU3 1-365): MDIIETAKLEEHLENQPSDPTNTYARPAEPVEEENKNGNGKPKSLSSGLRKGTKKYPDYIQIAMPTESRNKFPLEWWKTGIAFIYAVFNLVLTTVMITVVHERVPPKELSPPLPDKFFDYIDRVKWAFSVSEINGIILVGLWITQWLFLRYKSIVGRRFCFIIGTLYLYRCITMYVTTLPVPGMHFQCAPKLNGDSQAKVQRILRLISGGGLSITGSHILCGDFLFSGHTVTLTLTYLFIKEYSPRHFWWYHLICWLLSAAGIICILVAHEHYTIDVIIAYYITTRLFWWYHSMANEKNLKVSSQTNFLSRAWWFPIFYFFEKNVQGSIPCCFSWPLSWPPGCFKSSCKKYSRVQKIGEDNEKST
# procedureSummary: SMS2 inhibitory activity in vitro, HPLC fluorescence quantitative detection (C6-NBD-ceramide to C6-NBD-SM)
# Type: biochemical
# conditionsUsed: 1 µM test compound; SMS2 pure enzyme; 37°C, 30 minutes; average of two measurements; read-out: Inhibition rate on SMS2 at C/µM 1
measuredParameter: inhibition at 1 µM (%)

Worked examples, 5 compounds total:
Cc1ccc(NC(=O)c2sccc2OCc2ccccc2)cn1 ... 7
O=C(Nc1ccc(F)nc1)c1sccc1OCc1ccccc1 ... 9
O=C(Nc1cccnc1)c1sccc1OCc1csc2ccccc12 ... 86
CCCCCCOc1cc(Cl)ccc1COc1ccsc1C(=O)Nc1cccnc1 ... 95
O=C(Nc1ccc2c(c1)oc1ccccc12)c1sccc1OCc1ccccc1 ... -5

1: COc1cccc(COc2ccsc2C(=O)Nc2cccnc2)c1
2: O=C(Nc1cc(F)ccn1)c1sccc1OCc1ccccc1
# returns the entry with the larger inhibition at 1 µM; inputs 1 and 2 Selection: enter the item's label.
1

I: O=C(Nc1cccnc1)c1sccc1OCc1c2ccccc2cc2ccccc12
II: CCCCCOc1cccc(Cl)c1COc1ccsc1C(=O)Nc1cccnc1
Identify the entry with the smaller inhibition at 1 µM: I or II . Please reply using the label of the selected record.
I
(I: 50%, II: 91%)

A: CC(C)Oc1ccccc1COc1ccsc1C(=O)Nc1cccnc1
B: O=C(Nc1cc(Cl)cc(Cl)n1)c1sccc1OCc1ccccc1
C: O=C(Nc1cc(F)c(F)c(F)c1)c1sccc1OCc1ccccc1
Please put the entries in order of rising inhibition at 1 µM. In your reply, arrange the labels in the requested order.
C, B, A

I: CCCOc1cccc(Cl)c1COc1ccsc1C(=O)Nc1cccnc1
II: O=C(Nc1ccc2c(c1)Cc1ccccc1-2)c1sccc1OCc1ccccc1
Which is greater in inhibition at 1 µM, the first item I or the second item II ? Provide the label of your selected option as the answer.
I
(I: 74%, II: -16%)

====

# testedSystem: SMS2 (Homo sapiens)
# Construct: CAO, Yu research team, National Protein Scientific Center (Shanghai); supplied by an outside laboratory, not a commercial vendor
# procedureSummary: SMS2 inhibitory activity in vitro, HPLC fluorescence quantitative detection (C6-NBD-ceramide to C6-NBD-SM)
# Format: biochemical
# conditionsUsed: 10 µM test compound; SMS2 pure enzyme; 37°C, 30 minutes; average of two measurements; read-out: Inhibition rate on SMS2 at C/µM 10
measuredParameter: inhibition at 10 µM (%)

Previously resolved entries follow.
N#Cc1cccc(COc2ccsc2C(=O)Nc2cccnc2)c1 ... 60
O=C(Nc1cccnc1)c1sc([N+](=O)[O-])cc1OCc1ccccc1 ... 50
O=C(Nc1cccnc1)c1sccc1OCc1ccccc1N1C(=O)c2ccccc2C1=O ... 4

P: O=C(Nc1cccnn1)c1sccc1OCc1ccccc1
Q: O=C(Nc1cccnc1)c1cncnc1OCc1ccccc1
R: O=C(Nc1ccc(C(F)(F)F)nc1)c1sccc1OCc1ccccc1
S: O=C(Nc1cccnc1)c1ccncc1OCc1ccccc1
Ascending sort, inhibition at 10 µM. Give the order by naming the labels one after another as requested.
R, Q, S, P

====

# testedSystem: SMS2 (Homo sapiens)
# Sequence (Q8NHU3 1-365): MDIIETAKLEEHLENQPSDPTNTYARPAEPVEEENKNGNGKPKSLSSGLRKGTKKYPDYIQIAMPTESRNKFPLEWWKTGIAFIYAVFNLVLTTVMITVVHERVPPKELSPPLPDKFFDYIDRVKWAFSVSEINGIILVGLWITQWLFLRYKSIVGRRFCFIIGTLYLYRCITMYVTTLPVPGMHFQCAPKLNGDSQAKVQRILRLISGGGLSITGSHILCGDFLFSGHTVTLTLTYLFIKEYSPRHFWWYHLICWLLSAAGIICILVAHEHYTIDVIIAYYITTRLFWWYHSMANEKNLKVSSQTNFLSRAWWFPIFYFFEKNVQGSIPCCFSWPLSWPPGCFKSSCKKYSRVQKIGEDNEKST
measuredParameter: IC50 (nM)
Your answer is read as nM, so omit the unit and give the number.

Given CCc1ccccc1COc1ccccc1C(=O)Nc1cccnc1 [12-1 (LY93), reference compound] , respond with its IC50.
285

====

# testedSystem: SMS2 (Homo sapiens, UniProt Q8NHU3)
# Construct: CAO, Yu research team, National Protein Scientific Center (Shanghai); supplied by an outside laboratory, not a commercial vendor
# procedureSummary: SMS2 inhibitory activity in vitro, HPLC fluorescence quantitative detection (C6-NBD-ceramide to C6-NBD-SM)
# Type: biochemical
# conditionsUsed: 1 µM test compound; SMS2 pure enzyme; 37°C, 30 minutes; average of two measurements; read-out: Inhibition rate on SMS2 at C/µM 1
measuredParameter: inhibition at 1 µM (%)

// worked examples, inhibition at 1 µM included
CCCCCCOc1c(Cl)cccc1COc1ccsc1C(=O)Nc1cccnc1 ... 97
O=C(Nc1cccnc1)c1sccc1OCc1cc(Cl)ccc1Cl ... 74
CCc1ccccc1COc1ccsc1C(=O)Nc1cccnc1 ... 73
O=C(Nc1cccnc1)c1sccc1OCc1ccccc1OCCCCCl ... 97
COc1cccc(Cl)c1COc1ccsc1C(=O)Nc1cccnc1 ... 80
O=C(Nc1cccnc1)c1sccc1OCc1ccccc1F ... 54
O=C(Nc1cccnc1)c1sccc1OCc1cccc(F)c1 ... 67
O=C(Nc1cccnc1)c1sccc1OCc1cc(OP(=O)(O)O)ccc1Cl ... 13

A: O=C(Nc1cccnc1)c1sccc1OCc1ccccc1-c1ccccc1
B: O=C(Nc1cccnc1)c1sccc1OCc1cccc(C(F)(F)F)c1
C: Cc1cc(OCc2ccccc2)c(C(=O)Nc2cccnc2)s1
hey, can you rank those molecules up there by inhibition at 1 µM? biggest number first please Please reply with the labels ordered as requested. Many thanks.
B, A, C
